Provenance of the data: patent US20230256092A1

- MEASUREMENT TARGET: human CCR8 (human) (UniProt P51685)
- METHOD SUMMARY: cell-based or functional assay
PARAMETER: IC50 ratio (WT IC50/mutant IC50)
# answer = number (no unit)

These solved cases illustrate the format of a correct answer.
BINDER: h10A11 (IGKV4-1/IGHV3-73 L34I) (antibody, name in Kabat numbering, V domains shown) VH: EVQLVESGGGLVQPGGSLKLSCAASGFAFNTYAIYWVRQASGKGLEWVGRIRSKSNNYATYYADSVKDRFTISRDDSKNTAYLQMNSLKTEDTAVYYCTRARFYYSDYGYAMDYWGQGTLVTVSS VL: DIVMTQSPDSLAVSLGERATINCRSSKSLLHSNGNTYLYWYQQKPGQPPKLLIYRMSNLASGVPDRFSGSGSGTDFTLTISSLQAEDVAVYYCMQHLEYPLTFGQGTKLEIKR
PARAMETER: IC50 ratio (WT IC50/mutant IC50)
READOUT NUMBER: 0.43
--
BINDER: h10A11 (IGKV4-1/IGHV3-73 Y32F) (antibody, name in Kabat numbering, V domains shown) VH: EVQLVESGGGLVQPGGSLKLSCAASGFAFNTFALYWVRQASGKGLEWVGRIRSKSNNYATYYADSVKDRFTISRDDSKNTAYLQMNSLKTEDTAVYYCTRARFYYSDYGYAMDYWGQGTLVTVSS VL: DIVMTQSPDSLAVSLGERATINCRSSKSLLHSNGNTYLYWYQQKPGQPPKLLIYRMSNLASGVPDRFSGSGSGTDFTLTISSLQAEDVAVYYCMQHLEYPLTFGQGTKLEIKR
PARAMETER: IC50 ratio (WT IC50/mutant IC50)
READOUT NUMBER: 0.44

Proceeding to the next binder to report its IC50 ratio (WT IC50/mutant IC50).
Value of IC50 ratio (WT IC50/mutant IC50) reported for the binder h10A11 (IGKV4-1/IGHV3-73 M100fL) (antibody, name in Kabat numbering, V domains shown) VH: EVQLVESGGGLVQPGGSLKLSCAASGFAFNTYALYWVRQASGKGLEWVGRIRSKSNNYATYYADSVKDRFTISRDDSKNTAYLQMNSLKTEDTAVYYCTRARFYYSDYGYALDYWGQGTLVTVSS VL: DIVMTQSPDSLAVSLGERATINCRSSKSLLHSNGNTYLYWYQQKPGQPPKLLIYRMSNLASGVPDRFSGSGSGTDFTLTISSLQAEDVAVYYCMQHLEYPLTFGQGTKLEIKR is 0.72
